From: the METLIN SMRT retention time set (Domingo-Almenara et al. 2019)

assay.text: gradient 5% acetonitrile 3 min, to 50% in 2 min, to 85% in 15 min, held 3 min, 100 µL/min
study.conditions: column: Zorbax Extend-C18 2.1 x 50 mm; eluents: water / acetonitrile, 0.1% formic acid
measure: RP-LC retention time (s)

Example cases with answers are listed next.
INSERT INTO results (compound, measure, unit_tag, observed_measurement) VALUES
  ('COC(=O)c1onc(C(=O)c2ccccc2)c1C(=O)OC', 'RP-LC retention time', 's', 931),
  ('CCNC(=O)c1cc(N(C)C)nc2c(Cl)cccc12', 'RP-LC retention time', 's', 730);

I: Cc1cc(C)n(-c2ccc(=O)n(CCNC(=O)c3cc(C)on3)n2)n1
II: COc1ccc(C)cc1NC(=O)Cn1nc(N2CCSCC2)c2ccccc2c1=O
Q) For the two items I and II , which reports the higher RP-LC retention time value? Could you answer with the label of the item you picked?
A) II
(II: 1040 s, I: 640 s)
